These data points were gathered from paper PMC11305387.

Measured pEC50 accompanies every entry in the list below.
system-under-test: D2 receptor (Homo sapiens)
Construct: TANGO fusion module (own knowledge, Kroeze et al.: C-terminal V2 tail, TEV site and tTA); 1000000068
Sequence (P14416 whole entry, the tested form may be a part): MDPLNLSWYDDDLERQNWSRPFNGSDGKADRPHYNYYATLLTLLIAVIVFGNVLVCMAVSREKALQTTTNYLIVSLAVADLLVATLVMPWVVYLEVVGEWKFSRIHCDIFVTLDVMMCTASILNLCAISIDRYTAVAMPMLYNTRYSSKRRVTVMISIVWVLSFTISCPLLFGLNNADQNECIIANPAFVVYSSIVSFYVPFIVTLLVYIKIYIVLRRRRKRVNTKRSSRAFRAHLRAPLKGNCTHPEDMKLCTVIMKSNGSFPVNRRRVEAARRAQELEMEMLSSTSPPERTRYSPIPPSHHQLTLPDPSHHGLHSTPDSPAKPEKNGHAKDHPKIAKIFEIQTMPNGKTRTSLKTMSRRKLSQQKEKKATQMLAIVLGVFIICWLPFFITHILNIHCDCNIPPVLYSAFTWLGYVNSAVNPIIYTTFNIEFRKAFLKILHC
assay-procedure: cell-based
run-parameters: concentration-response curves
pEC50: −log10 of the molar value.

Report pEC50, nothing else, for this compound: C1=C(c2ccco2)CNCC1
< 6.00

// Input: CC1=C(c2ccco2)CNCC1 . Output its pEC50 only.
< 6.00

###

assay-procedure: In vivo pharmacokinetics, plasma and brain
Set-up: species or system mice
run-parameters: male, C57BL/6, mouse, ip; plasma, mice, intraperitoneal 1 mg/kg
test-readout: half-life

Input CC1=C(c2ccco2)CNCC1 [Compound 65] , output reported half-life.
17 min

###

assay-procedure: In vivo pharmacokinetics, plasma and brain
Parameters: species or system mice
run-parameters: male, C57BL/6, mouse, brain and plasma, intraperitoneal, 1 mg/kg; total concentrations, AUCbrain/AUCplasma; read-out: brain-to-plasma partition coefficient Kp,brain
test-readout: Kp
Enter a number only.

Give the reported value of Kp for this record: CC1=C(c2ccco2)CNCC1 [Compound 65]
7.9

###

system-under-test: hTAAR1 (Homo sapiens)
Construct: expressed in transfected cells; host or cells: Expi293F
assay-procedure: G protein (mini-Gs) recruitment luminescence complementation assay, agonist mode
Type: cell-based
run-parameters: TAAR1, G protein recruitment assay; read-out: pEC50 (converted)
Flag rule - EC50 less than 300 nM flags Criterion met; the remaining entries get Criterion not met.

Past entries and their recorded results:
Cc1ccc([C@@H]2CNCCO2)o1	Criterion met
CCNCc1cncc2ccccc12	Criterion not met
CC1=C(c2ccccn2)CNCC1	Criterion not met
Brc1cccc2c1CNCC2	Criterion not met

Query molecule follows.
# check: EC50 < 300 nM for CC1=C(c2ncco2)CNCC1
Criterion not met

###

assay-procedure: In vivo pharmacokinetics, plasma and brain
Design: species or system mice
run-parameters: male, C57BL/6, mouse, plasma, ip; below lower limit of quantification; mice, i.p. 1 mg/kg
test-readout: concentration at 4 h

Name the recorded concentration at 4 h of the item CC1=C(c2ccco2)CNCC1 [Compound 65] in your answer.
< 5 nM

###

system-under-test: hTAAR1 (Homo sapiens, UniProt Q96RJ0)
Construct: expressed in transfected cells; host or cells: Expi293F
Sequence (Q96RJ0 whole entry): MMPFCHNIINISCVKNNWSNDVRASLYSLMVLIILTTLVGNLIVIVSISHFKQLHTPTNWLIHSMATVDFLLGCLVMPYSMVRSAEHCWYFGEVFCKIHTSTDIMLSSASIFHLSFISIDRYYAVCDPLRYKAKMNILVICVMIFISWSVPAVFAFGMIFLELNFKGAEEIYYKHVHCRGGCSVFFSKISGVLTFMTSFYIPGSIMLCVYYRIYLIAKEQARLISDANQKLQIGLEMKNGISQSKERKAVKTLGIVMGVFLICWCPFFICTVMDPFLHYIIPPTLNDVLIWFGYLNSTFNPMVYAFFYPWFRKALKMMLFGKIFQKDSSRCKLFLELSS
assay-procedure: G protein (mini-Gs) recruitment luminescence complementation assay, agonist mode
Assay type: cell-based
run-parameters: TAAR1, G protein recruitment assay; read-out: pEC50 (converted)
test-readout: EC50 (µM)
Write the number in µM without appending the unit.

Example cases with answers are listed next.
C[C@H](N)c1csc2ccccc12 [Compound 15]	6.31
Cc1ccc(-c2cccc3c2CNCC3)o1 [Compound 18]	0.631
COc1cccnc1C1=C(C)CCNC1 [Compound 69]	3.16
C[C@H](N)c1coc2ccccc12 [Compound 14]	7.94
CNCc1cccc2cccnc12 [Compound 22]	3.16

Output EC50 of NCCc1ccccc1 [β-PEA, β-phenethylamine, reference compound]
0.251

Please report EC50 for the following molecule: Cn1cc(C2=CCCNC2)cn1 [Compound 66]
2

Output EC50 of NC[C@H]1OCCc2sc(F)cc21 [Compound 26]
1

Please report EC50 for the following molecule: CCNCc1cccc2c1OCO2 [Compound 57]
5.01

Report EC50 for COc1cccc(C2=CCNC2)c1 [Compound 24]
1.58

Consider the molecule c1ccc2c(c1)C[C@H]2CNCc1c[nH]cn1 [Compound 61] and give its recorded EC50.
5.01
